Answer each item with its documented Ratio (pH 7.4/6.0).
TEST TARGET: T1, cyno CD46 expressed on 293 cells (cynomolgus)
T1 construct: whole, on cells; The construct on the cells is not described; also called HEK 293 cells expressing cyno CD46
ASSAY TEXT: FACS, 293 cells expressing cyno CD46; EC50 at pH 7.4 over EC50 at pH 6.0
Answers are plain numbers.

INSERT INTO results (binder, data_value) VALUES
  ('BA-133-04-03 (antibody, V domains shown, also called CPE hit BA133-04-03) VH: EVQLVESGGGLVQPGGSLRLSCAASGGSVSSYDISWIRQSPSRGLEWLGVIWTDGGTNYNSAFMSRFTISRDDSKNTAYLQMNSLKTEDTAVYYCERVYDGYPWFAYWGQGTLVTVSS VL: AIQLTQSPSSLSASVGDRVTITCRASQGISNYLNWYLQKPGQSPQLLIYYTSSLFSGVPDRFSGSGSGTDFTLKISRVEAEDVGVYYCQQYIKLPWTFGQGTKVEIK', 8),
  ('BAP133-2-03-03-SL (antibody, V domains shown, the killing assays used the ADC form; also called BAP133-02-03-03-SL; CPE hit BAP133-2-03-03-SL) VH: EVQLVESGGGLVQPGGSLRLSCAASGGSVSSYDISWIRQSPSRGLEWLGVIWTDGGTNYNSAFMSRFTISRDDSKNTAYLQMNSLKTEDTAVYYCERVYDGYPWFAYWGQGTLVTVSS VL: AIQLTQSPSSLSASVGDRVTITCRASQGISNYLNWYLQKPGQSPQLLIYYTSSLHSGVPDRFSGSGSGTDFTLKISRVEAEDVGVYYCQQYIKLPWTFGQGTKVEIK', 11);

// below: Ratio (pH 7.4/6.0) requested for another binder
Query string: Please report Ratio (pH 7.4/6.0) for the following binder: BAP133-2-02-12 (antibody, V domains shown, also called BAP133-02-02-12; CPE hit BAP133-2-02-12) VH: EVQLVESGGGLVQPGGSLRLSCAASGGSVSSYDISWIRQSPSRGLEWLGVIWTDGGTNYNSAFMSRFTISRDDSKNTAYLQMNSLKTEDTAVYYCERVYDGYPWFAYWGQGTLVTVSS VL: AIQLTQSPSSLSASVGDRVTITCRALQGISNYLNWYQQKPGKAPKLLIYYTSSLHSGVPSRFSGSGSGTEFTLTISSLQPDDFATYYCQQYIKLPWTFGQGTKVEIK
Result string: 14.8

Sourced from patent US20230242662A1
